- STUDY TARGET: MAGI2_2, Q86UL8
- Sequence (Q86UL8 410-522): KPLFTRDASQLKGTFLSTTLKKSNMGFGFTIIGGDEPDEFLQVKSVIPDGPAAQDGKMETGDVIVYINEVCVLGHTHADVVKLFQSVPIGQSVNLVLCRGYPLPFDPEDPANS
- PROCEDURE DETAILS: holdup assay
- Design: key: below the threshold = too weak to quantify, mostly under pKd 3.1 to 4
- RUN PARAMETERS: plain residues with an end cap or a label only (N-terminal biotin on a linker: ttds)
Note to self: values exactly at 4 are yes (1). So pKd at or above 4 is yes (1), below is no (0).

- BINDER: "SSIDLWETAL [SLC15A5, A6NIM6]"
  QUALITATIVE LABEL: "yes (1)"

Is reported pKd greater than or equal to 4 here: SGGKRKETLV [NET1, Q7Z628] yes (1)

Threshold query (pKd >= 4) on SHSSKGETAV [FZD7, O75084] yes (1)

Reported pKd at or above 4? QRPYRRESEI [KCNJ12, Q14500] yes (1)

Is pKd at least 4? Consider GRLLGLETNV [ARHGEF26, Q96DR7] no (0)
